These data points were gathered from ChEMBL document CHEMBL3621124.

# pIC50 listing for each entry below
# Test system: SMMC-7721
# measurement-protocol: Cytotoxicity against human SMMC7721 cells assessed as growth inhibition incubated for 72 hrs by MTT assay
# Assay type: functional, cell-based
# measurement-setup: SMMC-7721, 72 h
Note on pIC50: it is the negative log10 of concentration, concentration in mol/L.

Below: 6 molecules and their reported pIC50.
{"molecule": "C=C1C(=O)O[C@H]2C[C@@H](C)C(=O)C[C@@H]12", "pIC50": 4.37}
{"molecule": "C=C(C)CC[C@H](OC(C)=O)[C@@]1(C)C[C@@H]2OC(=O)C(=C)[C@@H]2CC1=O", "pIC50": 4.61}
{"molecule": "C=C1C(=O)O[C@H]2C[C@]3(C)C(=O)C=C(CC)[C@@H](C3=O)[C@@H]12", "pIC50": 4.57}
{"molecule": "C=C1C(=O)O[C@H]2C[C@]3(C)C(=O)C=C(CC)OC3=C[C@@H]12", "pIC50": 4.71}
{"molecule": "C=C1C(=O)O[C@H]2C[C@@]3(C)C(=O)[C@@H]([C@@H]12)[C@](O)(CC)C[C@@H]3OCOC", "pIC50": 4.50}
{"molecule": "C=C1C(=O)O[C@H]2C[C@](C)(C(=O)CC(=O)CC)C(=O)C[C@@H]12", "pIC50": 4.31}

Prompt: Which pIC50 reading was recorded for the molecule "C=C(C)CC[C@H](O)[C@@]1(C)C[C@@H]2OC(=O)C(=C)[C@@H]2CC1=O" ?
Response: 4.27

Prompt: Follow-up entry: "C=C1C(=O)O[C@H]2C[C@](C)(/C=C/C(=O)CC)C(=O)C[C@@H]12"
Response: 4.60

Prompt: Follow-up entry: COc1cccc2c1C(=O)c1c(O)c3c(c(O)c1C2=O)C[C@@](O)(C(=O)CO)C[C@@H]3O[C@H]1C[C@H](N)[C@H](O)[C@H](C)O1 [DOXORUBICIN]
Response: 6.24
